The variants listed here are annotated with their protein stability index.
B1: EPB41L3 (parent)
chain: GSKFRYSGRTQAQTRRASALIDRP

Variants of: B1
protocol.summary: protein stability index of a GFP-peptide fusion (GPS, HEK-293T) (PSI 1-6); higher = more stable;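 further: lentivirally expressed fusions sorted by FACS into six bins by GFP to DsRed ratio, PSI derived from sequencing read proportions per bin multiplied by bin number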
measurement.setup: c terminus: a fixed tail appended
Reply briefly: the number, and no unit.

Take a look at these entries with their results.
[
  {
    "residue.string": "GSKFRYSGRTQAQTRRARALIDRP [S18R]",
    "protein stability index": 3.08
  },
  {
    "residue.string": "GSKFRYSIRTQAQTRRASALIDRP [G8I]",
    "protein stability index": 2.93
  },
  {
    "residue.string": "GSKFRYSGRTQAQTRQASALIDRP [R16Q]",
    "protein stability index": 3.31
  },
  {
    "residue.string": "GSKFRYSGRTQAQTRRASALIDRF [P24F]",
    "protein stability index": 3.05
  },
  {
    "residue.string": "GSKFRYSGRTQAQTPRASALIDRP [R15P]",
    "protein stability index": 3.3
  }
]

# input May I ask what protein stability index has been recorded for GSKFRYSGRTQAQTWRASALIDRP [R15W] ?
# output 2.45

# input May I ask what protein stability index has been recorded for GSKFRYSGKTQAQTRRASALIDRP [R9K] ?
# output 2.97

# input May I ask what protein stability index has been recorded for GSKFRPSGRTQAQTRRASALIDRP [Y6P] ?
# output 3.68

# input May I ask what protein stability index has been recorded for GSKFRYSGRTQAQTRRASALTDRP [I21T] ?
# output 3.21

# input May I ask what protein stability index has been recorded for GSKFRYSGRTQAQTYRASALIDRP [R15Y] ?
# output 2.54

# input May I ask what protein stability index has been recorded for GSKVRYSGRTQAQTRRASALIDRP [F4V] ?
# output 4.28
